- assayName: Pharmacokinetics after intramuscular injection of mRNA-LNPs in mice
- Assay type: in vivo, female CD-1 mice
- statedConditions: female, CD-1; mouse plasma, IM mRNA-LNP; read-out: Overall plasma exposure (AUC0-tlast)
measuredQuantity: AUC(0-t) (µg·h/mL)
Quick note: give the figure in µg·h/mL, leave out the unit.

Query: Bench note: what AUC(0-t) did `CCCCCCCCCCN(CCCCCCCCCC)CCNC(=O)CCN(CCO)CCC(=O)NCCN(CCCCCCCCCC)CCCCCCCCCC` show?
Result: 13.8

Query: Moving on to the next molecule: `CCCCCCCCCCN(CCCCCCCCCC)CCCOC(=O)CCCCN(CCO)CCCCC(=O)OCCCN(CCCCCCCCCC)CCCCCCCCCC`
Result: 1.03

###

- assayName: Pharmacokinetics after intramuscular injection of mRNA-LNPs in mice
- Assay type: in vivo, female CD-1 mice
- statedConditions: female, CD-1, spleen; mouse, IM mRNA-LNP; read-out: tissue/plasma AUC ratio, spleen
- Protocol: Pharmacokinetic studies in mice were conducted according to Transpharmation Canada Ltd. standard operating procedures (SOPs) and accepted scientific practices but was not in accordance with the principles of Good Laboratory Practice (GLP). Two studies were conducted and have been combined for analysis. […] Tandem liquid chromatography-mass spectrometry (LC-MS/MS) methods were developed for the quantification of Compound I-12 and Compound I-6 in mouse plasma, muscle, liver, spleen, urine, and feces. […]
Consider the following compounds; for each one, report its Kp.
Respond using a number only.

Query: State the recorded Kp for this entry: `CCCCCCCCCCN(CCCCCCCCCC)CCCOC(=O)CCCCN(CCO)CCCCC(=O)OCCCN(CCCCCCCCCC)CCCCCCCCCC`
Result: 59

Query: Consider next the compound `CCCCCCCCCCN(CCCCCCCCCC)CCNC(=O)CCN(CCO)CCC(=O)NCCN(CCCCCCCCCC)CCCCCCCCCC` in the same way.
Result: 28

###

- assayName: Pharmacokinetics after intramuscular injection of mRNA-LNPs in mice
- Type: in vivo, female CD-1 mice
- statedConditions: female, CD-1; mouse plasma, IM mRNA-LNP; I-12 estimate not considered accurate; read-out: estimated apparent half-life (t1/2) in plasma (converted)
For each entry below, report its half-life value.
# output: bare number, implied unit days

Query: Any idea what half-life was measured for CCCCCCCCCCN(CCCCCCCCCC)CCNC(=O)CCN(CCO)CCC(=O)NCCN(CCCCCCCCCC)CCCCCCCCCC [Compound I-12] ?
Result: 12.3

Query: Another molecule to look at: CCCCCCCCCCN(CCCCCCCCCC)CCCOC(=O)CCCCN(CCO)CCCCC(=O)OCCCN(CCCCCCCCCC)CCCCCCCCCC [Compound I-6]
Result: 0.638

###

- assayName: Pharmacokinetics after intramuscular injection of mRNA-LNPs in mice
- Type: in vivo, female CD-1 mice
- statedConditions: female, CD-1, liver; mouse, IM mRNA-LNP; read-out: tissue/plasma AUC ratio, liver
- Description: Pharmacokinetic studies in mice were conducted according to Transpharmation Canada Ltd. standard operating procedures (SOPs) and accepted scientific practices but was not in accordance with the principles of Good Laboratory Practice (GLP). Two studies were conducted and have been combined for analysis. […] Tandem liquid chromatography-mass spectrometry (LC-MS/MS) methods were developed for the quantification of Compound I-12 and Compound I-6 in mouse plasma, muscle, liver, spleen, urine, and feces. […]
measuredQuantity: Kp
# output: bare number, no unit

Query: Which measured Kp value corresponds to CCCCCCCCCCN(CCCCCCCCCC)CCCOC(=O)CCCCN(CCO)CCCCC(=O)OCCCN(CCCCCCCCCC)CCCCCCCCCC [Compound I-6] ?
Result: 46

Query: For CCCCCCCCCCN(CCCCCCCCCC)CCNC(=O)CCN(CCO)CCC(=O)NCCN(CCCCCCCCCC)CCCCCCCCCC [Compound I-12] then?
Result: 50

###

- assayName: Pharmacokinetics after intramuscular injection of mRNA-LNPs in mice
- Type: in vivo, female CD-1 mice
- statedConditions: female, CD-1, muscle; mouse, IM mRNA-LNP; read-out: tissue/plasma AUC ratio, muscle
Could you please report measured Kp for the items listed next?
The answer should be a number; do not append a unit.

Query: Name the reported Kp value associated with the compound CCCCCCCCCCN(CCCCCCCCCC)CCNC(=O)CCN(CCO)CCC(=O)NCCN(CCCCCCCCCC)CCCCCCCCCC [Compound I-12]
Result: 236

Query: Repeat with CCCCCCCCCCN(CCCCCCCCCC)CCCOC(=O)CCCCN(CCO)CCCCC(=O)OCCCN(CCCCCCCCCC)CCCCCCCCCC [Compound I-6]
Result: 962
